Tested on: K4 kissing-loop RNA reporter;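 also: bound reporter read as fluorescence of individual clusters on recovered sequencing chips by microscopy, with normalized cluster intensities fitted with a binding model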
Test: apparent KD of K4 kissing-loop reporter; higher = weaker reporter binding
Details: Eterna round: R107; input ligand: arginine 13.2 mM
Assign class by apparent KD of K4 kissing-loop reporter: not lower than 0.3 µM means 1 (yes); lower than 0.3 µM means 0 (no).

Check the entry AAUCCUAACGGAGUGAUGUUCCGUAGCGAUACCAGCCAUUGCGAUGGCCCUUGGCAGCGCUAUAAGCAUUGCUAGUAAGGGCCAA [Theo A Ex t7] : does apparent KD of K4 kissing-loop reporter equal or exceed 0.3 µM?
0 (no)

Please check the record GCCGUAGUUGGAAGGAGCGUGAAUGGCCUCUAUCCAAAGUGAUGUUUUGUUGAAGACUGUUCACAGGUAGGUCGCCAACUACGGC [#09 K4 Arginine B Same State] and state if its apparent KD of K4 kissing-loop reporter is at or above 0.3 µM.
0 (no)

Hello, the source for this data is the supplement of paper PMC9170038, in case you need it.
